# System: HepG2
# protocolSummary: Antiproliferative activity against human HepG2 cells after 48 hrs by MTT assay
# Type: functional, cell-based
# assaySetup: HepG2, 48 h
property: IC50 (µM)
Supply the numeric figure in µM, leaving out any unit text.

[[record]]
molecule = "CC(=O)[C@]1(O)CC[C@@]2(O)[C@]1(C)[C@H](OC(=O)c1ccc(O)cc1)C[C@@H]1[C@@]3(C)CC[C@H](O[C@@H]4O[C@H](CO)[C@@H](O)[C@H](O)[C@H]4O)CC3=CC[C@]12O"
systemundertest = "HepG2"
property = "IC50"
reading = 65.3

[[record]]
molecule = "CC(=O)OC[C@H]1O[C@@H](O[C@H]2CC[C@@]3(C)C(=CC[C@]4(O)[C@@H]3C[C@@H](OC(=O)/C=C(\\C)C(C)C)[C@@]3(C)[C@]4(O)CC[C@@]3(O)C(C)=O)C2)[C@H](OC(C)=O)[C@@H](OC(C)=O)[C@H]1OC(C)=O"
systemundertest = "HepG2"
property = "IC50"
reading = 9.7

[[record]]
molecule = "CC(=O)O[C@@H]1[C@@H](O[C@H]2CC[C@@]3(C)C(=CC[C@]4(O)[C@@H]3C[C@@H](OC(=O)/C=C(\\C)C(C)C)[C@@]3(C)[C@]4(O)CC[C@@]3(O)C(C)=O)C2)OC[C@H](OC(C)=O)[C@H]1OC(C)=O"
systemundertest = "HepG2"
property = "IC50"
reading = 15.8

[[record]]
molecule = "CC(=O)OC[C@H]1O[C@@H](O[C@H]2CC[C@@]3(C)C(=CC[C@]4(O)[C@@H]3C[C@@H](OC(=O)/C=C(\\C)C(C)C)[C@@]3(C)[C@]4(O)CC[C@@]3(O)C(C)=O)C2)[C@H](OC(C)=O)[C@@H](OC(C)=O)[C@@H]1OC(C)=O"
systemundertest = "HepG2"
property = "IC50"
reading = 65.8

[[record]]
molecule = "CC(=O)O[C@@H]1[C@@H](OC(C)=O)[C@H](O[C@H]2CC[C@@]3(C)C(=CC[C@]4(O)[C@@H]3C[C@@H](OC(=O)/C=C/c3ccccc3)[C@@]3(C)[C@]4(O)CC[C@@]3(O)[C@H](C)OC(=O)c3cccnc3)C2)OC[C@H]1OC(C)=O"
systemundertest = "HepG2"
property = "IC50"
reading = 70.1


Enquiry: Under HepG2: IC50 value of `CC(=O)O[C@@H]1[C@@H](OC(C)=O)[C@H](C)O[C@@H](O[C@H]2CC[C@@]3(C)C(=CC[C@]4(O)[C@@H]3C[C@@H](OC(=O)/C=C/c3ccccc3)[C@@]3(C)[C@]4(O)CC[C@@]3(O)[C@H](C)OC(=O)c3cccnc3)C2)[C@@H]1OC(C)=O` ?
Return: 69.1

Enquiry: Under HepG2: IC50 value of `CC(=O)[C@]1(O)CC[C@@]2(O)[C@]1(C)[C@H](OC(=O)c1ccc(O)cc1)C[C@@H]1[C@@]3(C)CC[C@H](O[C@@H]4O[C@H](CO)[C@H](O)[C@H](O)[C@H]4O)CC3=CC[C@]12O` ?
Return: 23.7

Enquiry: Under HepG2: IC50 value of `CC(=O)O[C@H]1[C@H](O[C@H]2CC[C@@]3(C)C(=CC[C@]4(O)[C@@H]3C[C@@H](OC(=O)/C=C(\C)C(C)C)[C@@]3(C)[C@]4(O)CC[C@@]3(O)C(C)=O)C2)OC[C@@H](OC(C)=O)[C@H]1OC(C)=O` ?
Return: 30.8

Enquiry: Under HepG2: IC50 value of `CC(=O)N[C@H]1[C@H](O[C@H]2CC[C@@]3(C)C(=CC[C@]4(O)[C@@H]3C[C@@H](OC(=O)/C=C(\C)C(C)C)[C@@]3(C)[C@]4(O)CC[C@@]3(O)C(C)=O)C2)O[C@H](COC(C)=O)[C@@H](OC(C)=O)[C@@H]1OC(C)=O` ?
Return: 5.5
